Cited source: paper PMC10820089

tested on: Tyrosinase from Agaricus bisporus; assay: Tyrosinase inhibition assay (L-tyrosine substrate); format: biochemical; conditions: 150 µM compound, n = 3
Would you mind labelling by % Inhib (150 µM) of tyrosinase activity? At or over 50% is 1.0, under is 0.0.

> print(dat)
                                   molecule                     assayed.system  assigned.category
1    C=C[C@@](C)(/C=C/c1ccc(O)cc1)CCC=C(C)C  Tyrosinase from Agaricus bisporus                1.0
2  O=c1cc(CO)occ1O [Kojic acid, kojic acid, reference compound]  Tyrosinase from Agaricus bisporus                1.0
3  O=C1O[C@H]([C@@H](O)CO)C(O)=C1O[C@H]1O[C@H](CO)[C@@H](O)[C@H](O)[C@H]1O [AA-2G, ascorbyl glucoside]  Tyrosinase from Agaricus bisporus                0.0
4  OC[C@H]1O[C@H](Oc2ccc(O)cc2)[C@H](O)[C@@H](O)[C@@H]1O  Tyrosinase from Agaricus bisporus                0.0

Problem: Check if % Inhib (150 µM) of tyrosinase activity >= 50% (inclusive). Item: CCCCc1ccc(O)cc1O
Result: 1.0

Problem: Check if % Inhib (150 µM) of tyrosinase activity >= 50% (inclusive). Item: NC[C@H]1CC[C@H](C(=O)O)CC1 [TA, tranexamic acid, reference compound]
Result: 0.0
